Each entry below carries its recorded pIC50.
Target: human TLR8 (Homo sapiens, UniProt Q9NR97)
Sequence (Q9NR97 27-1041): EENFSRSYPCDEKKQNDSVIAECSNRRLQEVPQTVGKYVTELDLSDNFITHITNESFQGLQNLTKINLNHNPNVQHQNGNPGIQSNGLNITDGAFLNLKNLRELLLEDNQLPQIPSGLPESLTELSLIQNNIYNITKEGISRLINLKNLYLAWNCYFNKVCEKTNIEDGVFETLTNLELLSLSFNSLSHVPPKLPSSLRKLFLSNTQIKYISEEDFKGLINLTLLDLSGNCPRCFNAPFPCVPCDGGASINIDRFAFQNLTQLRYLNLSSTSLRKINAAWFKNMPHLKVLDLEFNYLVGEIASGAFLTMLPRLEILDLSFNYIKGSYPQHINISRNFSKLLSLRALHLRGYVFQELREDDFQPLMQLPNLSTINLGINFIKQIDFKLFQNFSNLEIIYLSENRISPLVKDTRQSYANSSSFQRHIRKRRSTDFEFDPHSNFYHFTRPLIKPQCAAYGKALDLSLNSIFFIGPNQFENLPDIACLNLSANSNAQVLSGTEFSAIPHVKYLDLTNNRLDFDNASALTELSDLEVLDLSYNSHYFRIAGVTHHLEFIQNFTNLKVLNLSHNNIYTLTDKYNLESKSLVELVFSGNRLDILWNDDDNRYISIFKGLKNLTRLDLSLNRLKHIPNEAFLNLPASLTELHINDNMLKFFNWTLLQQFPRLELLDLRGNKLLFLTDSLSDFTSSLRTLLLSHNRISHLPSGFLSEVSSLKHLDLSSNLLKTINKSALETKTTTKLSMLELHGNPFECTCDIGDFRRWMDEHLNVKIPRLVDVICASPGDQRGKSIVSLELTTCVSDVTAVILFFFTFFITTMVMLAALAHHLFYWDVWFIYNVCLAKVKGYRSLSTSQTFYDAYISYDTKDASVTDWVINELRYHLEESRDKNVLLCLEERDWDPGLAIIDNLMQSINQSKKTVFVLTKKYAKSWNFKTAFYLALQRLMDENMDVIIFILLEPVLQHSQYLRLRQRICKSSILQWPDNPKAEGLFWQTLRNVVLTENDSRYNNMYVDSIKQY
Experiment: TLR8 inhibition reporter assay (HEK-Blue cells, SEAP reporter, R848 stimulation)
Conditions: HEK-Blue cells overexpressing human TLR8, SEAP reporter, R848 15.9 μM
Note: pIC50 values are expressed as the negative base-10 logarithm of concentration in M.

GET /values?readout=pIC50&system=human TLR8 (Homo sapiens, UniProt Q9NR97)&item= Cc1c(-c2[nH]c3ccc(C4CN(Cc5c[nH]nn5)C4)cc3c2C(C)C)cn2ncnc2c1C [Example 551]
8.49

---

Each entry below carries its recorded pIC50.
Target: human TLR8 (Homo sapiens, UniProt Q9NR97)
Experiment: TLR8 inhibition reporter assay (HEK-Blue cells, SEAP reporter, R848 stimulation)
Conditions: HEK-Blue cells overexpressing human TLR8, SEAP reporter, R848 15.9 μM
Note: pIC50 values are expressed as the negative base-10 logarithm of concentration in M.

# count of solved cases: 6
{"COMPOUND": "COc1cc(-c2[nH]c3ccc(CCC4CNC4)cc3c2C(C)C)cn2ncnc12 [Example 440]", "pIC50": 7.80}
{"COMPOUND": "COc1cc(-c2[nH]c3ccc(CCC4CN(C(=O)CN(C)C)C4)cc3c2C(C)C)cn2ncnc12 [Example 439]", "pIC50": 8.20}
{"COMPOUND": "CNCC(=O)N1CCCC(c2ccc3[nH]c(-c4cn5ncnc5c(C)c4C)c(C(C)C)c3c2)C1 (centres unmarked) [Example 213]", "pIC50": 8.30}
{"COMPOUND": "Cc1cc(-c2[nH]c3ccc(C4CCC(O)CC4)cc3c2C(C)C)ccn1 (centres unmarked) [Example 173]", "pIC50": 7.25}
{"COMPOUND": "Cc1c(-c2[nH]c3ccc(C4CC5CN(CC(N)=O)CC5C4)cc3c2C(C)C)cn2ncnc2c1C (centres unmarked) [Example 511]", "pIC50": 8.21}
{"COMPOUND": "Cc1c(-c2[nH]c3ccc(C4CCC(N5CCOCC5)CC4)cc3c2C(C)C)cn2ncnc2c1C (single isomer, unassigned) [Example 93]", "pIC50": 8.42}

Alright, here's another compound for you.
Quick one: pIC50 for Cc1cc(-c2[nH]c3ccc([C@@H]4C[C@H]4CN4CCCC4)cc3c2C(C)C)ccn1 [Example 464] ?
8.47
